Data origin, for the record: patent US11702404B2

Let's look at some compounds and their measured Predicted Hepatic Clearance (Pred. Cl.).
test_details: Microsomal stability, human liver microsomes (predicted hepatic clearance)
settings: predicted from in vitro microsomal stability data

{"compound": "COCCn1c(Cc2ccc(-c3cccc(OCc4ccc(F)cc4OC)n3)cc2F)nc2ccc(C(=O)O)cc21 [Example 252]", "value_measured": "<1.83 mL/min/kg"}
{"compound": "N#Cc1ccc(COc2nc(-c3cc(F)c(Cc4nc5ccc(C(=O)O)cc5n4C[C@@H]4CCO4)cc3F)ccc2F)c(F)c1 [Example 450]", "value_measured": "<1.83 mL/min/kg"}

Next compound, Predicted Hepatic Clearance (Pred. Cl.) to be filled in.
# Predicted Hepatic Clearance (Pred. Cl.) (compound: N#Cc1ccc(COc2cccc(-c3ccc(Cc4nc5cc(C(=O)O)ccc5n4CC4(CF)CC4)c(F)c3)n2)c(F)c1 [Example 552] ) is <1.83 mL/min/kg

====

Reported values of EC50 for individual entries
test_system: UniProt:P43220
test_details: GLP-1R activation: cAMP increase in CHO cells stably expressing GLP-1R
Assay type: cell-based
settings: cAMP increase, CHO cells stably expressing GLP-1R, 10 point dose response, 30 minutes incubation; read-out: EC50
Enter your answer as a number in nM; do not include the unit.

Value of EC50 reported for the molecule COCCn1c(Cc2ccc(-c3cccc(OCc4ccccc4)n3)cc2F)nc2ccc(C(=O)O)cc21 is 102

Record Cn1nnc(Cn2c(Cc3ccc(-c4cccc(OCc5ccc(C#N)cc5F)n4)cc3F)nc3ccc(C(=O)O)cc32)n1 . Reported EC50: 139

The recorded EC50 for COCCn1c(Cc2ccc(-c3nc(OCc4ccc(C#N)cc4F)ccc3Cl)cc2F)nc2ccc(C(=O)O)cc21 is 80.9

====

The compounds listed here are annotated with their EC50.
test_system: GLP-1R (Homo sapiens)
test_details: GLP-1R activation: cAMP increase in CHO cells stably expressing GLP-1R
Format: cell-based
settings: cAMP increase, CHO cells stably expressing GLP-1R, 10 point dose response, 30 minutes incubation; read-out: EC50
Give the value, in units of nM, as a plain number.

{"compound": "COCCn1c(Cc2ccc(-c3cccc(OCc4cnc(Cl)s4)n3)cc2F)nc2ccc(C(=O)O)cc21 [Example 593]", "EC50, nM": 145}
{"compound": "[2H]C([2H])(Oc1cccc(-c2cc(F)c(Cc3nc4ccc(C(=O)O)cc4n3CCOC)cc2F)n1)c1ccc(C#N)cc1F [Example 543]", "EC50, nM": 1.51}
{"compound": "COCCn1c(Cc2ccc(-c3ccc(N)c(OCc4ccc(C#N)cc4F)c3)cc2F)nc2ccc(C(=O)O)cc21 [Example 82]", "EC50, nM": 264}
{"compound": "COCCn1c(Cc2ccc(-c3cccc(OCc4cccc(C(C)(C)C)c4)n3)cc2F)nc2ccc(C(=O)O)cc21 [Example 155]", "EC50, nM": 73.2}

# evaluate next
Log: GLP-1R (Homo sapiens), compound N#Cc1ccc(COc2cccc(-c3ccc(Cc4nc5ccc(C(=O)O)cc5n4Cc4cocn4)c(F)c3)n2)c(F)c1 [Example 407] , EC50 = 4.69

====

test_system: GLP-1R (Homo sapiens, UniProt P43220)
Sequence (P43220 24-463): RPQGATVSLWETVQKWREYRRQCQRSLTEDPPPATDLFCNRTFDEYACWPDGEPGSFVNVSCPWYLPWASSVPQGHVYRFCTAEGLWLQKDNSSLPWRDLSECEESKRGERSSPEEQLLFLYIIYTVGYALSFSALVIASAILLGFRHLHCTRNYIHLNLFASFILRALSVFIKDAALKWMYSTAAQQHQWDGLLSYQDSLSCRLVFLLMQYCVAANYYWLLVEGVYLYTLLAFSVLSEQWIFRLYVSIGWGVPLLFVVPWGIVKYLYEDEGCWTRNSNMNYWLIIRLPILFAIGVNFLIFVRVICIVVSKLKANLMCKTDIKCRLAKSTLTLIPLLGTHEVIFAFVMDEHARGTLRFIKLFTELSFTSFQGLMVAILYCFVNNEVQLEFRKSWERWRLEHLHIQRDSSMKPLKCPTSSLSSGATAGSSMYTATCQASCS
test_details: GLP-1R activation: cAMP increase in CHO cells stably expressing GLP-1R
Format: cell-based
settings: EC50 (nM)
Recorded EC50, one value per entry.
// note: answer is a bare numeric in nM

{"smiles_notation": "COCCn1c(Cc2ccc(-c3cccc(OCc4ccc(C#N)cc4F)n3)c(C#N)c2)nc2ccc(C(=O)O)cc21", "reading_unit": "nM", "EC50": 70.9}
{"smiles_notation": "COCCn1c(Cc2ccc(-c3cccc(OCc4ccc(C#N)cc4F)n3)cc2F)nc2ccc(CC(=O)O)cc21", "reading_unit": "nM", "EC50": 157}
{"smiles_notation": "CC(C)(CF)Cn1c(Cc2ccc(-c3cccc(OCc4ccc(C#N)cc4F)n3)c(F)c2)nc2ccc(C(=O)O)cc21", "reading_unit": "nM", "EC50": 0.75}

Turning now to a further record.
Lab note: compound COCCn1c(Cc2ccc(-c3cccc(OCc4ccc(C#N)cc4F)n3)cc2COC)nc2ccc(C(=O)O)cc21 tested on GLP-1R (Homo sapiens, UniProt P43220); recorded EC50 was 140

====

test_details: Microsomal stability, human liver microsomes (predicted hepatic clearance)
settings: predicted from in vitro microsomal stability data
value_type: Predicted Hepatic Clearance (Pred. Cl.)
Returns: string containing the numeric result and its unit.

{"molecule": "N#Cc1ccc(COc2nc(-c3ccc(Cc4nc5c(F)cc(C(=O)O)cc5n4C[C@@H]4CCO4)c(F)c3)ccc2F)c(F)c1 [Example 132]", "Predicted Hepatic Clearance (Pred. Cl.)": "3.58 mL/min/kg"}
{"molecule": "COCCn1c(Cc2ccc(-c3cccc(OCc4cccnc4OC)n3)cc2F)nc2ccc(C(=O)O)cc21 [Example 511]", "Predicted Hepatic Clearance (Pred. Cl.)": "18.7 mL/min/kg"}

response.value for COCCn1c(Cc2ccc(-c3cccc(OCc4ccc(C#N)cc4F)n3)cc2O)nc2ccc(C(=O)O)cc21 [Example 181] (field: Predicted Hepatic Clearance (Pred. Cl.)) = 2.83 mL/min/kg

====

test_details: Microsomal stability, human liver microsomes (predicted hepatic clearance)
settings: predicted from in vitro microsomal stability data
Predicted Hepatic Clearance (Pred. Cl.) of 0.2 L/h/kg or higher: fulfilled. Under 0.2 L/h/kg: not fulfilled.

In plain terms: is recorded Predicted Hepatic Clearance (Pred. Cl.) at least 0.2 L/h/kg for COCCn1c(Cc2ccc(-c3cccc(OCc4ccc(C(F)(F)F)cc4)n3)cc2F)nc2ccc(C(=O)O)cc21 [Example 508] ?
not fulfilled

Is Predicted Hepatic Clearance (Pred. Cl.) for N#Cc1ccc(COc2cccc(-c3ccc(Cc4nc5ccc(C(=O)O)cc5n4CC4(Br)CC4)c(F)c3)n2)c(F)c1 [Example 289] at or above 0.2 L/h/kg?
not fulfilled

Please check the record N#Cc1ccc(COc2nccc(-c3cc(F)c(Cc4nc5ccc(C(=O)NS(=O)(=O)C6CC6)cc5n4C[C@@H]4CCO4)cc3F)n2)c(F)c1 [Example 685] and state if its Predicted Hepatic Clearance (Pred. Cl.) is at or above 0.2 L/h/kg.
not fulfilled

Determine whether measured Predicted Hepatic Clearance (Pred. Cl.) meets or exceeds 0.2 L/h/kg for N#Cc1ccc(COc2cccc(-c3cc(F)c(Cc4nc5ccc(C(=O)O)cc5n4CCOC4CC4)cc3F)n2)c(F)c1 [Example 629]
not fulfilled

Identify whether the reported Predicted Hepatic Clearance (Pred. Cl.) of the following compound is 0.2 L/h/kg or greater: COCCn1c(Cc2ccc(-c3cccc(OCc4ccc(C#N)cc4F)n3)c3ccccc23)nc2ccc(C(=O)O)cc21 [Example 35]
fulfilled

For this compound, is measured Predicted Hepatic Clearance (Pred. Cl.) 0.2 L/h/kg or higher? COc1cc(C#N)ccc1COc1cccc(-c2cc(F)c(Cc3nc4ccc(C(=O)O)cc4n3CC3(CF)CC3)cc2F)n1 [Example 409]
not fulfilled

Determine whether measured Predicted Hepatic Clearance (Pred. Cl.) meets or exceeds 0.2 L/h/kg for CS(=O)(=O)N1CCC[C@@H]1Cn1c(Cc2cc(F)c(-c3cccc(OCc4ccc(C#N)cc4F)n3)cc2F)nc2ccc(C(=O)O)cc21 [Example 735]
fulfilled

Evaluate N#Cc1ccc(COc2nccc(-c3ccc(Cc4nc5ccc(C(=O)O)cc5n4C[C@@H]4CCO4)c(F)c3)n2)c(F)c1 [Example 351] : Predicted Hepatic Clearance (Pred. Cl.) at minimum 0.2 L/h/kg?
not fulfilled

Hi team, for O=C(O)c1cc(F)c2nc(Cc3cc(F)c(-c4nc(OCc5ccc(C(F)F)cc5F)ccc4F)cc3F)n(C[C@@H]3CCO3)c2c1 [Example 769] , is the recorded Predicted Hepatic Clearance (Pred. Cl.) at or above 0.2 L/h/kg?
fulfilled

Quick check: does COCCn1c(Cc2ccc(-c3cccc(OCc4ccc(C#CC(C)(C)O)cc4F)n3)cc2F)nc2ccc(C(=O)O)cc21 [Example 841] have Predicted Hepatic Clearance (Pred. Cl.) greater than or equal to 0.2 L/h/kg?
fulfilled

Assess whether reported Predicted Hepatic Clearance (Pred. Cl.) for COCCn1c(Cc2ccc(-c3cccc(OCc4cccc(OC(F)F)c4)n3)cc2F)nc2ccc(C(=O)O)cc21 [Example 505] sits at 0.2 L/h/kg or higher.
not fulfilled

Tell me whether Predicted Hepatic Clearance (Pred. Cl.) is at least 0.2 L/h/kg here: N#Cc1ccc(COc2cccc(-c3cc(F)c(Cc4nc5ccc(C(=O)O)cc5n4C4CCCC4(F)F)cc3F)n2)c(F)c1 (stereo not shown) [Example 700]
fulfilled

====

test_system: GLP-1R (Homo sapiens)
test_details: GLP-1R activation: cAMP increase in CHO cells stably expressing GLP-1R
Format: cell-based
settings: cAMP increase, CHO cells stably expressing GLP-1R, 10 point dose response, 30 minutes incubation; read-out: EC50
Quick reference for log10 EC50 among some compounds
The figures below represent log10 of EC50, where EC50 is stated in nM.

{"compound": "COCCn1c(Cc2cc(F)c(-c3cccc(OCc4ccc(F)nc4)n3)cc2F)nc2ccc(C(=O)O)cc21 [Example 812]", "value_measured": 1.40}

# log10 EC50 (compound: COC(Cn1c(Cc2ccc(-c3cccc(OCc4ccc(C#N)cc4F)n3)cc2F)nc2ccc(C(=O)O)cc21)C(=O)Nc1nccs1 (single isomer, unassigned) [Example 329] ) is 2.46

// sample COCCn1c(C2OCCc3cc(-c4cccc(OCc5ccc(C#N)cc5F)n4)ccc32)nc2ccc(C(=O)O)cc21 (single isomer, unassigned) [Example 48] , its log10 EC50 was 2.76

For reference, reported log10 EC50 for N#Cc1ccc(COc2cccc(-c3ccc(Cc4nc5ccc(C(=O)NS(=O)(=O)C6CC6)cc5n4CC4(CF)CC4)c(F)c3)n2)c(F)c1 [Example 57] stands at 0.83

Value of log10 EC50 reported for the compound CC(C1CCCO1)n1c(Cc2cc(F)c(-c3cccc(OCc4ccc(C#N)cc4F)n3)cc2F)nc2ccc(C(=O)O)cc21 (centres unmarked) [Example 833] is 0.81

Notebook: C[C@@]1(Cn2c(Cc3ccc(-c4cccc(OCc5ccc(C#N)cc5F)n4)cc3F)nc3ccc(C(=O)O)cc32)CCO1 [Example 105] , log10 EC50 read as -0.35

Record COCCn1c(Cc2cc(F)c(-c3cccc(OCc4ccc(Cl)cc4)n3)cc2F)nc2ccc(C(=O)O)cc21 [Example 602] , field log10 EC50: 0.07

So, COCCn1c(Cc2ccc(-c3cccc(OCc4cccc5c4OC(C)(C)C5)n3)cc2F)nc2ccc(C(=O)O)cc21 [Example 152] ? Its log10 EC50 was 2.11

COCCn1c(Cc2cc(F)c(-c3cccc(OCc4ccc(C)cn4)n3)cc2F)nc2ccc(C(=O)O)cc21 [Example 803] yielded log10 EC50 of 0.77

Per the records, this compound ( O=C(O)c1cc(F)c2nc(Cc3ccc(-c4ccc(F)c(OCc5ccc(C(F)F)cc5F)n4)cc3F)n(C[C@@H]3CCO3)c2c1 [Example 774] ) has log10 EC50 equal to -1.22

Per the record, N#Cc1ccc(COc2cccc(-c3cc(F)c(Cc4nc5ccc(C(=O)O)cc5n4Cc4nccs4)cc3F)n2)c(F)c1 [Example 707] has log10 EC50 of 0.68
